Assay: Cmax in C57BL/6 mouse at 15 mg/kg administered intraarterially by LC-MS/MS analysis
Format: ADME, organism-based
Parameters: dose 15 mg/kg, route intra-arterial
Conditions: in vivo
measured parameter: Cmax

For the compound Oc1ccc(/C=C/c2cc(O)cc(O)c2)cc1 [RESVERATROL] , give its measured Cmax value. 15.3 µM

---

Test: Tmax in C57BL/6 mouse at 15 mg/kg administered intraarterially by LC-MS/MS analysis
Assay type: ADME, organism-based
Design: dose 15 mg/kg, route intra-arterial
Details: in vivo
measured parameter: Tmax (min)
Response body: numeric value in min, unit text excluded.

For the molecule `Oc1ccc(/C=C/c2cc(O)cc(O)c2)cc1` , give its measured Tmax value. 2.5
